system: UACC-62 melanoma; experiment: NCI tumour cell line growth inhibition, 48 h

MOLECULE	TGI
COCCN(Cc1ccc(F)cc1)c1ccc(CO)c(Cl)c1	4.28 µM
CN(C)c1ccc(-c2cc(-c3ccc(Nc4nc(Nc5ccc(Cl)cc5)nc(Nc5ccc(Cl)cc5)n4)cc3)nc(N)c2C#N)cc1	92.7 µM
CCOC(=O)C1(C)CCC(C(C(=O)O)C(=O)O)CC1=O (centres undefined)	> 100 µM
NC1=NC(Cn2nc(-c3ccccc3)c3ccccc3c2=O)=NNC(=O)N1	> 100 µM

* * *

system: M14 melanoma; assay: NCI tumour cell line growth inhibition, 48 h

MOLECULE	TGI
CCCCCC/C=C\CCCCCCCCC(=O)c1cccc(OC)c1OC	> 100 µM
CCOC(=O)c1c(NC(=O)c2ccccc2)c(C#N)c2n1CCCCC2	> 100 µM
CCN1/C(=C/C#C/C(C)=C\c2sc3ccc(Cl)cc3[n+]2CC)Sc2ccc(Cl)cc21	16.1 µM
C=CCN(CC=C)C(=O)c1cc(C)nc2c1c(=O)n(-c1ccccc1)c(=O)n2CCCN1CCN(c2ccccc2OC)CC1	> 50 µM
CC(N)(CC(O)(C(F)(F)Cl)C(F)(F)Cl)C(=O)O (stereo not drawn)	> 10 µM
Cc1nc2ccccc2c(=O)n1/N=C(\N=Nc1ccccc1Cl)c1ccccc1Cl	> 100 µM
COc1ccc2nc(NC(=O)C(=O)CC(=O)c3ccc([N+](=O)[O-])cc3)sc2c1	> 100 µM
Cc1cnc(C(=O)NNc2nc3sc4c(c3c(=O)[nH]2)C(C)CCC4)cn1 (stereo not drawn)	9.52 µM
N#Cc1ccccc1OCCOc1ccccc1C#N	> 100 µM
Cn1c(CNc2ccc(-c3n[nH]c(=S)n3C)cc2)n[nH]c1=S	> 100 µM
CC(C)[C@@H]1CC[C@]2(CO2)[C@@H]2C(=O)OCC(C(=O)O)=C[C@H]21	0.898 µM
Cc1cc(O)c(/C=N/C(N)=S)c(=O)o1	> 100 µM
S=C1SCN(Cc2ccccc2)CN1Cc1ccco1	19.3 µM
CCCCS(=O)c1sc2nc(-c3cccs3)cc(-c3ccccc3)c2c1N (stereo not drawn)	> 100 µM
CC(=O)OC1COC(N2CCc3cc([N+](=O)[O-])ccc32)C(OC(C)=O)C1OC(C)=O (stereo not drawn)	> 100 µM
CCN(/C=C1/C(=O)C(c2ccccc2)N(c2ccccc2)C1=O)CC (stereo not drawn)	> 10 µM
CCO/C=C1\SC(=S)N(c2ccc(OCC)cc2)C1=O	> 100 µM
CN1C(=O)CC(=O)N1/C(=C/c1ccccc1)c1ccccc1	> 100 µM
CCOc1cnc(C(O)(c2ccccc2)c2ccccc2)o1	> 100 µM
CCOC(=O)c1ccc(N=Nc2ccc(N(CCC#N)CCC#N)cc2C)cc1	> 100 µM
O=C1CC(c2ccc(Cl)cc2)=Nc2ccccc2N1	> 100 µM
CN=c1sc2c(n1C)C(=O)c1ccccc1C2=O	3.01 µM
C=CCON(C(=O)OC(C)(C)C)C(C)(C)C	> 100 µM

* * *

test system: A498 renal; assay: NCI tumour cell line growth inhibition, 48 h

MOLECULE	UNITS_TEXT	RELATION_SIGN	TGI
CN1CCOC(C(NC(=O)c2ccccc2)c2ccccc2)C1=O (stereo unspecified)	µM	>	100
COc1ccc(/C=C2\CCC/C(=C\c3ccc(OC)c(OC)c3)C2=O)cc1OC	µM	>	32.5
COc1ccc2nc3cc(Cl)ccc3c(NC(C)CCCN(CCCl)CCCl)c2c1 (stereo unspecified)	µM	=	18.7
c1cc(-c2ccc(-c3ccsc3)s2)cs1	µM	>	100
CCSCC1CC(O)(c2ccccc2)C(c2ccccc2)C(c2ccc(F)cc2)O1 (stereo unspecified)	µM	=	3.7
COC(=O)c1cc2c(cc1Cl)Sc1nnc(Nc3ccccc3)n1S2(=O)=O	µM	=	12.9
